target system: fatty acyl CoA: cholesterol acyl transferase (ACAT) (Rattus norvegicus)
Construct: The supernatant, containing the microsomal fraction, served as the source of the cholesterol-esterifying enzyme; from tissue; host or cells: rat adrenals, supernatant of 1,000 x g centrifugation containing the microsomal fraction
test method notes: Inhibition of fatty acyl CoA:cholesterol acyl transferase (ACAT), rat adrenal enzyme
Type: biochemical
test parameters: rat adrenal ACAT; final concentration 5.2 μg/ml; read-out: % Inhibition
experimental endpoint: inhibition at 5.2 µg/mL (%)

mol: CCCCN(Cc1ccccc1)C(=O)Nc1cc(Cl)ccc1O
inhibition at 5.2 µg/mL, %: 85.6
//
mol: CCCCN(Cc1ccccc1)C(=O)Nc1cc(Cl)ccc1OC
inhibition at 5.2 µg/mL, %: 80.6
//
mol: CCCCCCCN(Cc1ccco1)C(=O)Nc1cc(C)c(C)cc1C
inhibition at 5.2 µg/mL, %: 93.8
//
mol: CCCCCCCN(Cc1ccc(CCCC)cc1)C(=O)Nc1ccccc1C
inhibition at 5.2 µg/mL, %: 97.4
//
mol: CCCCc1ccc(CN(CCC(C)(C)C)C(=O)Nc2ccc(Cl)cc2C)cc1
inhibition at 5.2 µg/mL, %: 90.5

====

target system: fatty acyl CoA: cholesterol acyl transferase (ACAT) (Rattus norvegicus)
Construct: The supernatant, containing the microsomal fraction, served as the source of the cholesterol-esterifying enzyme; from tissue; host or cells: rat adrenals, supernatant of 1,000 x g centrifugation containing the microsomal fraction
Sequence (O70536 1-545): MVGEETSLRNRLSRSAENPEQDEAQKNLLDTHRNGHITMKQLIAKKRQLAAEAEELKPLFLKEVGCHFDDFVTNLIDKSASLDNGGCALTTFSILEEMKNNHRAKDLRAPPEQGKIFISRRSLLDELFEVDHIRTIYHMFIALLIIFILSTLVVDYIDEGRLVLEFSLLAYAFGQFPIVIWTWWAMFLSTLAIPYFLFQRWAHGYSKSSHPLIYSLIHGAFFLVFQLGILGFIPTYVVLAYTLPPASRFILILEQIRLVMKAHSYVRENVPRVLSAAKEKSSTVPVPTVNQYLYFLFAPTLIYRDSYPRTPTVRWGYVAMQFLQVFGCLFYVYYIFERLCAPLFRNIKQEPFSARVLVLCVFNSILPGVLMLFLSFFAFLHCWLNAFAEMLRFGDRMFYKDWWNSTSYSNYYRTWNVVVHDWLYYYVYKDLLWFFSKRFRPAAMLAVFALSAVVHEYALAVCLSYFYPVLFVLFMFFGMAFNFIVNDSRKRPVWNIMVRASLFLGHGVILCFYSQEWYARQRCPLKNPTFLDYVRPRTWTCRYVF
test method notes: Inhibition of fatty acyl CoA:cholesterol acyl transferase (ACAT), rat adrenal enzyme
Type: biochemical
test parameters: rat adrenal ACAT; final concentration 5.2 μg/ml; read-out: % Inhibition
experimental endpoint: inhibition at 5.2 µg/mL (%)

Worked cases, answers included:
molecule: Cc1ccc(NC(=O)N(CCc2ccccc2Cl)Cc2ccc(C)c(C)c2)c(C)c1
target system: fatty acyl CoA: cholesterol acyl transferase (ACAT) (Rattus norvegicus)
inhibition at 5.2 µg/mL [%]: 92.8

molecule: CCCCOc1ccc(CN(Cc2ccccc2)C(=O)Nc2cccc(C(F)(F)F)c2)cc1
target system: fatty acyl CoA: cholesterol acyl transferase (ACAT) (Rattus norvegicus)
inhibition at 5.2 µg/mL [%]: 87

molecule: Cc1ccc(NC(=O)N(Cc2ccccc2)C(Cc2ccccc2)c2ccc(OCc3ccccc3)cc2)c(C)c1 (stereo not shown)
target system: fatty acyl CoA: cholesterol acyl transferase (ACAT) (Rattus norvegicus)
inhibition at 5.2 µg/mL [%]: 93

P = CCCCCCCN(Cc1ccco1)C(=O)Nc1c(Cl)cc(Cl)cc1Cl
Q = CCOc1ccc(CCN(Cc2ccc(C)cc2C)C(=O)Nc2ccc(C)cc2C)cc1
Query: Response body: label of entry with the larger inhibition at 5.2 µg/mL; valid values P , Q . Record your answer as the label of the chosen record.
Reply: P
(P: 96.1%, Q: 34.9%)
